Data origin: patent US9394331B2

- Tested on: HCV replicon
- Test name: HCV replicon assay (Clone A cells and ET-lunet cells, HCV RNA by real time PCR)
- Format: cell-based, hepatitis C virus
- Condition description: Hepatitis C virus, 96 h, Table 1; HCV replicon, 4 days; read-out: EC50, anti-HCV activity of selected nucleosides
- Procedure: HCV replicon assay. HCV replicon assays using Clone A cells and ET-lunet cells were performed as described previously. L. J. Stuyver et al. Antimicrob. Agents Chemother. 2004, 48, 651-654. Briefly, Clone A cells and ET-lunet cells were seeded at a density of 1500 and 3000 cells per well in a 96-well plate, respectively. Test compounds serially diluted in culture medium without G418 were added to cells. […] Inhibition of HCV RNA replication was determined by quantitative real time PCR. […]
For each of the molecules below, state its EC50.

Illustrative cases are given below, each with its answer.
- Nc1ccn([C@@H]2O[C@H](CO)[C@@H](O)[C@@]23CCO3)c(=O)n1 [compound 51]: > 100 µM
- O=c1ccn([C@@H]2O[C@H](CO)[C@@H](O)[C@]23CCO3)c(=O)[nH]1 [compound 48]: > 100 µM
- O=c1ccn([C@@H]2O[C@H](CO)[C@@H](O)[C@]23CCCO3)c(=O)[nH]1 [compound 44]: > 100 µM
- Nc1nc2c(ncn2[C@@H]2O[C@H](CO)[C@@H](O)[C@]23CCO3)c(=O)[nH]1 [compound 77]: > 20 µM
- O=c1ccn([C@@H]2O[C@H](CO)[C@@H](O)[C@@]23CCO3)c(=O)[nH]1 [compound 36]: > 100 µM
- O=c1ccn([C@@H]2O[C@H](CO)[C@@H](O)[C@@]23CCCO3)c(=O)[nH]1 [compound 32]: > 100 µM
- COc1nc(N)nc2c1ncn2[C@@H]1O[C@H](CO)[C@@H](O)[C@]12CCO2 [compound 76]: > 100 µM
- COc1nc(N)nc2c1ncn2[C@@H]1O[C@H](CO)[C@@H](O)[C@]12CCCO2 [compound 72]: > 20 µM

I'm hoping you can list EC50 for every molecule here, please.
1. Nc1ccn([C@@H]2O[C@H](CO)[C@@H](O)[C@@]23CCCO3)c(=O)n1 [compound 50]
2. Nc1ccn([C@@H]2O[C@H](CO)[C@@H](O)[C@]23CCO3)c(=O)n1 [compound 52]
3. COc1nc(N)nc2c1ncn2[C@@H]1O[C@H](CO)[C@@H](O)[C@@]12CCCO2 [compound 62]
4. COc1nc(N)nc2c1ncn2[C@@H]1O[C@H](CO)[C@@H](O)[C@@]12CCO2 [compound 66]

Ans:
1: > 100 µM; 2: > 54.5 µM; 3: > 20 µM; 4: > 20 µM

Q: What EC50 value was documented for this molecule, Nc1ccn([C@@H]2O[C@H](CO)[C@@H](O)[C@]23CCCO3)c(=O)n1 [compound 49] ?
Ans: > 100 µM
